Measured values drawn from ChEMBL document CHEMBL5303573 for this set.

assay: The drug is tested on Enterobacter cancerogenus strain: ATCC35316 for biotransformation. The drug concentrations were measured before and after a 12-h incubation by liquid-chromatography-coupled mass spectrometry (LC–MS); settings: 2 µM
assayEndpoint: Bacterial Biotransformation

>  <molecule>
CCCN1C[C@H](CSC)C[C@@H]2c3cccc4[nH]cc(c34)C[C@H]21.CS(=O)(=O)O [PERGOLIDE MESYLATE]

>  <result>
Compound NOT metabolized

$$$$
>  <molecule>
Cc1ccc(-c2nc3ccc(C)cn3c2CC(=O)N(C)C)cc1

>  <result>
Compound NOT metabolized

$$$$
>  <molecule>
COc1cc2nc(N3CCN(C(=O)C4CCCO4)CC3)nc(N)c2cc1OC (configuration not stated)

>  <result>
Compound NOT metabolized

$$$$
>  <molecule>
O=C(O)CCC(=O)O.O=C(O[C@H]1CN2CCC1CC2)N1CCc2ccccc2[C@@H]1c1ccccc1 [SOLIFENACIN SUCCINATE]

>  <result>
Compound NOT metabolized

$$$$
>  <molecule>
Nc1nc(N)nc(-c2cc(Cl)ccc2Cl)n1.O=C(O)/C=C\C(=O)O [IRSOGLADINE MALEATE]

>  <result>
Compound NOT metabolized

$$$$
>  <molecule>
CC(Oc1c(Cl)cccc1Cl)C1=NCCN1 (configuration not stated)

>  <result>
Compound metabolized

$$$$
>  <molecule>
CN1CCN(CC/C=C2/c3ccccc3Sc3ccc(S(=O)(=O)N(C)C)cc32)CC1

>  <result>
Compound metabolized

$$$$
>  <molecule>
C#C[C@]1(O)CC[C@H]2[C@@H]3CCC4=CC(=O)CC[C@@H]4[C@H]3CC[C@@]21CC

>  <result>
Compound NOT metabolized

$$$$
>  <molecule>
C=CCN1CC[C@]23c4c5ccc(O)c4O[C@H]2C(=O)CC[C@@]3(O)[C@H]1C5

>  <result>
Compound NOT metabolized

$$$$
>  <molecule>
CC(C)C[C@H]1C(=O)N2CCC[C@H]2[C@]2(O)O[C@](NC(=O)[C@@H]3C=C4c5cccc6[nH]c(Br)c(c56)C[C@H]4N(C)C3)(C(C)C)C(=O)N12.CS(=O)(=O)O [BROMOCRIPTINE MESYLATE]

>  <result>
Compound metabolized

$$$$
>  <molecule>
C[C@@H](c1ncncc1F)[C@](O)(Cn1cncn1)c1ccc(F)cc1F

>  <result>
Compound NOT metabolized

$$$$
>  <molecule>
CCOC(=O)[C@H](CCc1ccccc1)N[C@H]1CCc2ccccc2N(CC(=O)O)C1=O

>  <result>
Compound NOT metabolized

$$$$
>  <molecule>
CC(=O)Oc1ccc(C(c2ccc(OC(C)=O)cc2)c2ccccn2)cc1

>  <result>
Compound metabolized

$$$$
>  <molecule>
O=c1[nH]c2ccccc2n1CCCN1CCC(n2c(=O)[nH]c3cc(Cl)ccc32)CC1

>  <result>
Compound NOT metabolized

$$$$
>  <molecule>
CSc1ccc2c(c1)C(N1CCN(C)CC1)Cc1ccccc1S2.O=C(O)/C=C\C(=O)O (configuration not stated)

>  <result>
Compound NOT metabolized

$$$$
>  <molecule>
O=C1[C@H](CC[C@H](O)c2ccc(F)cc2)[C@@H](c2ccc(O)cc2)N1c1ccc(F)cc1

>  <result>
Compound NOT metabolized

$$$$
>  <molecule>
CC(C)(C)NCC(O)COc1cccc2c1CC(O)C(O)C2 (configuration not stated)

>  <result>
Compound NOT metabolized

$$$$
>  <molecule>
NC(CO)(CO)CO.O=C(c1ccccc1)c1ccc2n1CCC2C(=O)O (configuration not stated)

>  <result>
Compound NOT metabolized

$$$$
>  <molecule>
Clc1cccc(Cl)c1N=C1NCCN1

>  <result>
Compound NOT metabolized

$$$$
>  <molecule>
COc1c(C)c2c(c(O)c1C/C=C(\C)CCC(=O)OCCN1CCOCC1)C(=O)OC2 [MYCOPHENOLATE MOFETIL]

>  <result>
Compound metabolized

$$$$
>  <molecule>
CC1=C(CC(=O)O)c2cc(F)ccc2/C1=C\c1ccc([S+](C)[O-])cc1 (configuration not stated)

>  <result>
Compound NOT metabolized

$$$$
>  <molecule>
CN1C(=O)CCS(=O)(=O)C1c1ccc(Cl)cc1 (configuration not stated)

>  <result>
Compound NOT metabolized

$$$$
>  <molecule>
C[C@@H]1CC[C@H]2[C@@H](C)C(=O)O[C@@H]3O[C@@]4(C)CC[C@@H]1[C@]32OO4

>  <result>
Compound metabolized

$$$$
>  <molecule>
CC1OC(OC2C(O)CC(OC3C(O)CC(OC4CCC5(C)C(CCC6C5CCC5(C)C(C7=CC(=O)OC7)CCC65O)C4)OC3C)OC2C)CC(O)C1O (configuration not stated)

>  <result>
Compound NOT metabolized

$$$$
>  <molecule>
CCCc1nn(C)c2c(=O)[nH]c(-c3cc(S(=O)(=O)N4CCN(C)CC4)ccc3OCC)nc12.O=C(O)CC(O)(CC(=O)O)C(=O)O [SILDENAFIL CITRATE]

>  <result>
Compound NOT metabolized

$$$$
>  <molecule>
COC(=O)[C@H](c1ccccc1Cl)N1CCc2sccc2C1.O=S(=O)(O)O [CLOPIDOGREL BISULFATE]

>  <result>
Compound NOT metabolized

$$$$
>  <molecule>
CN(C)CC(c1ccc(O)cc1)C1(O)CCCCC1.O=C(O)CCC(=O)O (configuration not stated) [DESVENLAFAXINE SUCCINATE]

>  <result>
Compound NOT metabolized

$$$$
>  <molecule>
N=C(N)NC(=O)Cc1c(Cl)cccc1Cl

>  <result>
Compound NOT metabolized

$$$$
>  <molecule>
OC(Cn1cncn1)(Cn1cncn1)c1ccc(F)cc1F

>  <result>
Compound NOT metabolized

$$$$
>  <molecule>
CN(C)CCOC(c1ccc(Cl)cc1)c1ccccn1.O=C(O)/C=C\C(=O)O (configuration not stated) [CARBINOXAMINE MALEATE]

>  <result>
Compound NOT metabolized

$$$$
>  <molecule>
CC#C[C@]1(O)CC[C@H]2[C@@H]3CCC4=CC(=O)CCC4=C3[C@@H](c3ccc(N(C)C)cc3)C[C@@]21C

>  <result>
Compound NOT metabolized

$$$$
>  <molecule>
Cc1nc(-c2ccc(OCC(C)C)c(C#N)c2)sc1C(=O)O

>  <result>
Compound NOT metabolized

$$$$

* * *

assay: The drug is tested on Escherichia coli strain: BW25113 for biotransformation. The drug concentrations were measured before and after a 12-h incubation by liquid-chromatography-coupled mass spectrometry (LC–MS); settings: 2 µM

>  <molecule>
COCCc1ccc(OCC(O)CNC(C)C)cc1.COCCc1ccc(OCC(O)CNC(C)C)cc1.O=C(O)C(O)C(O)C(=O)O (centres undefined) [METOPROLOL TARTRATE]

>  <Bacterial Biotransformation>
Compound NOT metabolized

$$$$
>  <molecule>
CCN(C)C(=O)Oc1cccc([C@H](C)N(C)C)c1.O=C(O)C(O)C(O)C(=O)O [RIVASTIGMINE TARTRATE]

>  <Bacterial Biotransformation>
Compound NOT metabolized

$$$$
>  <molecule>
CC(C)c1nc(N(C)S(C)(=O)=O)nc(-c2ccc(F)cc2)c1/C=C/[C@@H](O)C[C@@H](O)CC(=O)[O-].CC(C)c1nc(N(C)S(C)(=O)=O)nc(-c2ccc(F)cc2)c1/C=C/[C@@H](O)C[C@@H](O)CC(=O)[O-].[Ca+2] [ROSUVASTATIN CALCIUM]

>  <Bacterial Biotransformation>
Compound NOT metabolized

$$$$
>  <molecule>
COc1ccc(C(CN(C)C)C2(O)CCCCC2)cc1 (centres undefined) [VENLAFAXINE]

>  <Bacterial Biotransformation>
Compound NOT metabolized

$$$$
>  <molecule>
OCCN(CCO)c1nc(N2CCCCC2)c2nc(N(CCO)CCO)nc(N3CCCCC3)c2n1 [DIPYRIDAMOLE]

>  <Bacterial Biotransformation>
Compound NOT metabolized

$$$$
>  <molecule>
Fc1ccc([C@@H]2CCNC[C@H]2COc2ccc3c(c2)OCO3)cc1 [PAROXETINE]

>  <Bacterial Biotransformation>
Compound NOT metabolized

$$$$
>  <molecule>
CC(C)(C)NCC(O)c1cc(Cl)c(N)c(Cl)c1 (centres undefined) [CLENBUTEROL]

>  <Bacterial Biotransformation>
Compound NOT metabolized

$$$$
>  <molecule>
CC(C)[C@H]1CC[C@H](C(=O)N[C@H](Cc2ccccc2)C(=O)O)CC1 [NATEGLINIDE]

>  <Bacterial Biotransformation>
Compound NOT metabolized

$$$$
>  <molecule>
COc1ccc2cc([C@H](C)C(=O)O)ccc2c1 [NAPROXEN]

>  <Bacterial Biotransformation>
Compound NOT metabolized

$$$$
>  <molecule>
CN1C(C(=O)Nc2ccccn2)=C(O)c2sccc2S1(=O)=O [TENOXICAM]

>  <Bacterial Biotransformation>
Compound NOT metabolized

$$$$
>  <molecule>
O=c1[nH]c2ccccc2n1CCCN1CCC(n2c(=O)[nH]c3cc(Cl)ccc32)CC1 [DOMPERIDONE]

>  <Bacterial Biotransformation>
Compound NOT metabolized

$$$$
>  <molecule>
CCc1cccc2c3c([nH]c12)C(CC)(CC(=O)O)OCC3 (centres undefined) [ETODOLAC]

>  <Bacterial Biotransformation>
Compound NOT metabolized

$$$$
>  <molecule>
C=CCN1CC[C@]23c4c5ccc(O)c4O[C@H]2C(=O)CC[C@@]3(O)[C@H]1C5 [NALOXONE]

>  <Bacterial Biotransformation>
Compound NOT metabolized

$$$$
>  <molecule>
N=C(N)NC(=O)Cc1c(Cl)cccc1Cl [GUANFACINE]

>  <Bacterial Biotransformation>
Compound NOT metabolized

$$$$
>  <molecule>
CCN(CC)C(C)CN1c2ccccc2Sc2ccccc21 (centres undefined) [ETHOPROPAZINE]

>  <Bacterial Biotransformation>
Compound metabolized

$$$$
>  <molecule>
O=C(CCCN1CCC2(CC1)C(=O)NCN2c1ccccc1)c1ccc(F)cc1 [SPIPERONE]

>  <Bacterial Biotransformation>
Compound NOT metabolized

$$$$
>  <molecule>
CN1CCC(=C2c3ccccc3CCc3cccnc32)CC1.O=C(O)/C=C\C(=O)O.O=C(O)/C=C\C(=O)O [AZATADINE MALEATE]

>  <Bacterial Biotransformation>
Compound NOT metabolized

$$$$
>  <molecule>
CN1CCN(CC/C=C2/c3ccccc3Sc3ccc(S(=O)(=O)N(C)C)cc32)CC1 [THIOTHIXENE]

>  <Bacterial Biotransformation>
Compound NOT metabolized

$$$$
>  <molecule>
CCCCCCOC(=O)/N=C(/N)c1ccc(NCc2nc3cc(C(=O)N(CCC(=O)OCC)c4ccccn4)ccc3n2C)cc1.CS(=O)(=O)O [DABIGATRAN ETEXILATE MESYLATE]

>  <Bacterial Biotransformation>
Compound NOT metabolized

$$$$
>  <molecule>
COC(=O)C(c1ccccc1)C1CCCCN1 (centres undefined) [METHYLPHENIDATE]

>  <Bacterial Biotransformation>
Compound metabolized

$$$$
>  <molecule>
CC[C@H](C)C(=O)O[C@H]1CCC=C2C=C[C@H](C)[C@H](CC[C@@H]3C[C@@H](O)CC(=O)O3)[C@H]21 [MEVASTATIN]

>  <Bacterial Biotransformation>
Compound metabolized

$$$$
>  <molecule>
COc1ccccc1OCCNCC(O)COc1cccc2[nH]c3ccccc3c12 (centres undefined) [CARVEDILOL]

>  <Bacterial Biotransformation>
Compound metabolized

$$$$
>  <molecule>
O=C1C(CC[S+]([O-])c2ccccc2)C(=O)N(c2ccccc2)N1c1ccccc1 (centres undefined) [SULFINPYRAZONE]

>  <Bacterial Biotransformation>
Compound NOT metabolized

$$$$
>  <molecule>
CCC(COC(=O)c1cc(OC)c(OC)c(OC)c1)(c1ccccc1)N(C)C.O=C(O)/C=C\C(=O)O (centres undefined)

>  <Bacterial Biotransformation>
Compound metabolized

$$$$
>  <molecule>
Cc1nc(Nc2ncc(C(=O)Nc3c(C)cccc3Cl)s2)cc(N2CCN(CCO)CC2)n1.O [DASATINIB]

>  <Bacterial Biotransformation>
Compound NOT metabolized

$$$$
>  <molecule>
O=C(Nc1ccccc1)OCC(CN1CCCCC1)OC(=O)Nc1ccccc1 (centres undefined) [DIPERODON]

>  <Bacterial Biotransformation>
Compound NOT metabolized

$$$$
>  <molecule>
CCCC(C)(COC(N)=O)COC(=O)NC(C)C (centres undefined) [CARISOPRODOL]

>  <Bacterial Biotransformation>
Compound NOT metabolized

$$$$
>  <molecule>
CCN(CC)C(=O)C1(c2ccccc2)CC1CN (centres undefined)

>  <Bacterial Biotransformation>
Compound NOT metabolized

$$$$
>  <molecule>
CN(C)C(=O)C(CCN1CCC(O)(c2ccc(Cl)cc2)CC1)(c1ccccc1)c1ccccc1 [LOPERAMIDE]

>  <Bacterial Biotransformation>
Compound metabolized

$$$$
>  <molecule>
CN1CCN(C(=O)O[C@H]2c3nccnc3C(=O)N2c2ccc(Cl)cn2)CC1 [ESZOPICLONE]

>  <Bacterial Biotransformation>
Compound NOT metabolized

$$$$
>  <molecule>
Clc1cccc(Cl)c1N=C1NCCN1 [CLONIDINE]

>  <Bacterial Biotransformation>
Compound NOT metabolized

$$$$
>  <molecule>
Br.CN(C)CCCC1(c2ccc(F)cc2)OCc2cc(C#N)ccc21 (centres undefined) [CITALOPRAM HYDROBROMIDE]

>  <Bacterial Biotransformation>
Compound NOT metabolized

$$$$
>  <molecule>
OCCN1CCN(CCCN2c3ccccc3Sc3ccc(C(F)(F)F)cc32)CC1 [FLUPHENAZINE]

>  <Bacterial Biotransformation>
Compound metabolized

$$$$
>  <molecule>
CCN(CC)C(=O)/C(C#N)=C/c1cc(O)c(O)c([N+](=O)[O-])c1 [ENTACAPONE]

>  <Bacterial Biotransformation>
Compound metabolized

$$$$
